Listed next: entries and their corresponding activity, negative = cell killing.
- ASSAY_SUMMARY: Drug repurposing screens with cells derived from glioblastoma tumor samples (AID 1345199); also: % is scaled to controls: 0 for no effect and ±100 for the full control effect; nearly all actives have a fitted effect of over 40% in size
- APPLIED_CONDITIONS: GBM patient neurospheres viability, ATP luminescence, 48 h; at 46.1 µM (top of the series); tumour line C
Inconclusive results are not listed. The source made the active and inactive calls. Calls follow the shape of the dose curve; as a rule, active = well fitted inhibition curve with a large enough effect; inconclusive = small, poorly fitted or top-dose-only effect; inactive = flat fitted curve, though single readings scatter.

INSERT INTO results (molecule, measured) VALUES
  ('CC(=O)N[C@@H](Cc1ccc(O)cc1)C(=O)O', '6.62% (inactive)'),
  ('O=c1[nH]cnc2nc[nH]c12', '-12.9% (inactive)'),
  ('CC(O)CCCCn1c(=O)c2c(ncn2C)n(C)c1=O (configuration not stated)', '-1.44% (inactive)'),
  ('C[C@@H]1O[C@@H](OC[C@H]2O[C@@H](Oc3c(-c4ccc(O)c(O)c4)oc4cc(O)cc(O)c4c3=O)[C@H](O)[C@@H](O)[C@@H]2O)[C@H](O)[C@H](O)[C@H]1O', '-1.98% (inactive)'),
  ('O=C(O)Cc1cn(-c2ccccc2)nc1-c1ccc(Cl)cc1', '-18.4% (inactive)');

Req: Reported activity, negative = cell killing for CCOC(N)=O : what is it?
Resp: -16.1% (inactive)

Req: Reported activity, negative = cell killing for CN1C[C@@H]2C[C@H]1CN2c1cc2c(cc1F)c(=O)c(C(=O)O)cn2C1CC1 : what is it?
Resp: 3.73% (inactive)

Req: Reported activity, negative = cell killing for CCN(CC)S(=O)(=O)c1ccc(C(=O)O)cc1 : what is it?
Resp: -15.2% (inactive)

Req: Reported activity, negative = cell killing for COc1ccccc1Oc1c(NS(=O)(=O)c2ccc(C(C)(C)C)cc2)nc(-c2ncccn2)nc1OCCO : what is it?
Resp: -29.9% (inactive)

Req: Reported activity, negative = cell killing for O=C(CCBr)N1CCN(C(=O)CCBr)CC1 : what is it?
Resp: -5.97% (inactive)

Req: Reported activity, negative = cell killing for CCOC(=O)[C@H](CCc1ccccc1)N[C@@H](C)C(=O)N1Cc2cc(OC)c(OC)cc2C[C@H]1C(=O)O : what is it?
Resp: -6.4% (inactive)

Req: Reported activity, negative = cell killing for FC(F)(F)C(Cl)Br (configuration not stated) : what is it?
Resp: -0.139% (inactive)

Req: Reported activity, negative = cell killing for Cc1ccc(S(=O)(=O)NC(=O)NC2CCCCC2)cc1 : what is it?
Resp: -11.1% (inactive)

Req: Reported activity, negative = cell killing for CC(=O)N1C[C@H](O)C[C@H]1C(=O)O : what is it?
Resp: -5.75% (inactive)

Req: Reported activity, negative = cell killing for CC(C(=O)O)c1ccc2c(c1)Cc1cccnc1O2 (configuration not stated) : what is it?
Resp: -25.1% (inactive)

Req: Reported activity, negative = cell killing for O=C(NCCCN1CCOCC1)c1ccc(Cl)cc1 : what is it?
Resp: -13.2% (inactive)

----------
- ASSAY_SUMMARY: S16 Schwann cell PMP22 intronic element beta-lactamase assay (AID 624044);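 also: 0% = DMSO and -100% = potassium clavulanate positive control; nearly all actives have a fitted effect of over 15% in size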
- APPLIED_CONDITIONS: S16 rat Schwann cells, PMP22 element beta-lactamase FRET, 24 h; series mostly up to 38.3 µM
Records with an inconclusive call do not appear. The source made the active and inactive calls. Calls come from the whole dose curve.
MEASURED_ENDPOINT: outcome

Here's what some known entries look like.
INSERT INTO results (compound, measured_endpoint, measured) VALUES
  ('O=C(CN1CCNCC1)NC1CCCCC1', 'outcome', 'inactive'),
  ('CCOC(=O)c1cccnc1', 'outcome', 'inactive'),
  ('O=C(O)Cn1c(C(=O)Nc2nc(-c3ccccc3Cl)cs2)cc2ccccc21', 'outcome', 'inactive'),
  ('CCCCCCCCCCCCCCCCN', 'outcome', 'inactive'),
  ('CCc1nnc(NS(=O)(=O)c2ccc(N)cc2)s1', 'outcome', 'inactive');

Next item in the queue.
Req: Reported outcome for CCCCC1(COC(=O)CCC(=O)O)C(=O)N(c2ccccc2)N(c2ccccc2)C1=O : what is it?
Resp: inactive
